Cited source: ChEMBL document CHEMBL3865804

# Tested on: Staphylococcus aureus
# Assay remarks: Antibacterial activity against Staphylococcus aureus MB2865 by broth microdilution technique
# Format: functional
Value kind: MIC (µg/mL)
Field format: number, assumed µg/mL, no unit text.

Look up MIC for this compound: CC[C@H]1OC(=O)[C@H](C)[C@@H](O[C@H]2C[C@@](C)(OC)[C@@H](O)[C@H](C)O2)[C@H](C)[C@@H](O[C@@H]2O[C@H](C)C[C@H](N(C)C)[C@H]2O)[C@](C)(O)C[C@@H](C)N(C)C[C@H](C)[C@@H](O)[C@]1(C)O [L-701677] 0.5

Also need CC[C@H]1OC(=O)[C@H](C)[C@@H](O[C@H]2C[C@@](C)(OC)[C@@H](O)[C@H](C)O2)[C@H](C)[C@@H](O[C@@H]2O[C@H](C)C[C@H](N(C)C)[C@H]2O)[C@](C)(O)C[C@@H](C)CN(C)[C@H](C)[C@@H](O)[C@]1(C)O [AZITHROMYCIN] , thanks. 1

Also need CC[C@H]1OC(=O)[C@H](C)[C@@H](O[C@H]2C[C@@](C)(OC)[C@@H](O)[C@H](C)O2)[C@H](C)[C@@H](O[C@@H]2O[C@H](C)C[C@H](N(C)C)[C@H]2O)[C@](C)(O)C[C@@H](C)C(=O)[C@H](C)[C@@H](O)[C@]1(C)O [ERYTHROMYCIN] , thanks. 0.25

Also need CC[C@H]1OC(=O)[C@H](C)[C@@H](O[C@H]2C[C@@](C)(OC)[C@@H](N)[C@H](C)O2)[C@H](C)[C@@H](O[C@@H]2O[C@H](C)C[C@H](N(C)C)[C@H]2O)[C@](C)(O)C[C@@H](C)N(C)C[C@H](C)[C@@H](O)[C@]1(C)O , thanks. 1
